System: SF-295 CNS
assayNotes: NCI tumour cell line growth inhibition, 48 h
measurementKind: TGI

molecule	TGI
CSc1ccc2c(c1)C(=O)c1c-2n(CCCBr)c(=O)c2cc([N+](=O)[O-])ccc12	> 100 µM
COc1c[c]([Hg][O]C(C)=O)c(OC)c(NC(=O)CC(C)=O)[c]1[Hg][O]C(C)=O	> 55.8 µM
Cc1cc(C)c(/C=C2\C(=O)Nc3ccc(NC(=O)CCCCCCC(=O)NO)cc32)[nH]1	> 45.7 µM

Could you now look at the following molecule, please?
*Q* Give recorded TGI. CC(=O)N(CCc1ccccc1)C(C#N)c1ccccc1 (centres undefined)
*A* > 100 µM
